# System: SW 900
# Test protocol: relative viability (nuclei count vs DMSO), 5 days (fraction); higher = more cells survive
# Cond: first compound 2.53 µM
Readout type: relative viability
One number for each entry.

Record excerpt, results attached:
compound="CCCCCCCCCCCC1=C(O)C(=O)C=C(O)C1=O [Embelin] + N=C(N)NC(=N)NCCc1ccccc1 [Phenformin] (partner 250 µM)" readout_type="relative viability" recorded_value=0.655
compound="CCCCCCCCCCCC1=C(O)C(=O)C=C(O)C1=O [Embelin] + Cc1cc(Nc2cc(N3CCN(C)CC3)nc(Sc3ccc(NC(=O)C4CC4)cc3)n2)n[nH]1 [Tozasertib] (partner 0.1 µM)" readout_type="relative viability" recorded_value=0.511
compound="CCCCCCCCCCCC1=C(O)C(=O)C=C(O)C1=O [Embelin] + Cc1nc(Nc2ncc(C(=O)Nc3c(C)cccc3Cl)s2)cc(N2CCN(CCO)CC2)n1 [Dasatinib] (partner 0.075 µM)" readout_type="relative viability" recorded_value=0.546
compound="CCCCCCCCCCCC1=C(O)C(=O)C=C(O)C1=O [Embelin] + CC(=O)Nc1cccc(-n2c(=O)n(C3CC3)c(=O)c3c(Nc4ccc(I)cc4F)n(C)c(=O)c(C)c32)c1 [Trametinib] (partner 0.02 µM)" readout_type="relative viability" recorded_value=0.781

Kindly consider the entry below.
Request: Which relative viability is listed for CCCCCCCCCCCC1=C(O)C(=O)C=C(O)C1=O [Embelin] + CC(=O)c1c(C)c2cnc(Nc3ccc(N4CCNCC4)cn3)nc2n(C2CCCC2)c1=O [Palbociclib] (partner 0.5 µM) ?
Response: 0.668

###

# Tested on: HCC-827
# Test protocol: relative viability (nuclei count vs DMSO), 5 days (fraction); higher = more cells survive
# Cond: first compound 1.265 µM
Threshold check on relative viability: strictly below 0.3 is 1; on or above 0.3 is 0.

The following compounds have reported results that may help.
compound="COc1cc(N2CCC(C(N)=O)CC2)ccc1Nc1nc(N)c(Cl)c(Nc2ccccc2S(=O)(=O)C(C)C)n1 [HG-5-88-01] + Cc1cc(Nc2cc(N3CCN(C)CC3)nc(Sc3ccc(NC(=O)C4CC4)cc3)n2)n[nH]1 [Tozasertib] (partner 0.1 µM)" target_system=HCC-827 class_name=0
compound="COc1cc(N2CCC(C(N)=O)CC2)ccc1Nc1nc(N)c(Cl)c(Nc2ccccc2S(=O)(=O)C(C)C)n1 [HG-5-88-01] + Nc1nc2[nH]cc(CCc3ccc(C(=O)N[C@@H](CCC(=O)O)C(=O)O)cc3)c2c(=O)[nH]1 [Pemetrexed] (partner 0.2 µM)" target_system=HCC-827 class_name=1
compound="Clc1ccc(Nc2nnc(Cc3ccncc3)c3ccccc23)cc1 [Vatalanib] + CC(C)C[C@H](NC(=O)[C@H](Cc1ccccc1)NC(=O)c1cnccn1)B(O)O [Bortezomib] (partner 0.002 µM)" target_system=HCC-827 class_name=0
compound="COc1cc(N2CCC(C(N)=O)CC2)ccc1Nc1nc(N)c(Cl)c(Nc2ccccc2S(=O)(=O)C(C)C)n1 [HG-5-88-01] + Cc1nc(Nc2ncc(C(=O)Nc3c(C)cccc3Cl)s2)cc(N2CCN(CCO)CC2)n1 [Dasatinib] (partner 0.075 µM)" target_system=HCC-827 class_name=1

Request: Is the reported relative viability for COc1cc(N2CCC(C(N)=O)CC2)ccc1Nc1nc(N)c(Cl)c(Nc2ccccc2S(=O)(=O)C(C)C)n1 [HG-5-88-01] + C[C@@H](Oc1cc(-c2cnn(C3CCNCC3)c2)cnc1N)c1c(Cl)ccc(F)c1Cl [Crizotinib] (partner 1 µM) strictly below 0.3?
Response: 0

Request: What about Clc1ccc(Nc2nnc(Cc3ccncc3)c3ccccc23)cc1 [Vatalanib] + Nc1ncn([C@H]2C[C@H](O)[C@@H](CO)O2)c(=O)n1 [Decitabine] (partner 2 µM) ?
Response: 1

Request: What about COc1cc(N2CCC(C(N)=O)CC2)ccc1Nc1nc(N)c(Cl)c(Nc2ccccc2S(=O)(=O)C(C)C)n1 [HG-5-88-01] + CC(=O)c1c(C)c2cnc(Nc3ccc(N4CCNCC4)cn3)nc2n(C2CCCC2)c1=O [Palbociclib] (partner 0.5 µM) ?
Response: 1

Request: What about Clc1ccc(Nc2nnc(Cc3ccncc3)c3ccccc23)cc1 [Vatalanib] + Cc1nc(Nc2ncc(C(=O)Nc3c(C)cccc3Cl)s2)cc(N2CCN(CCO)CC2)n1 [Dasatinib] (partner 0.075 µM) ?
Response: 0

###

Task for the reader: assign each of the following compounds its reported relative viability.
# System: ABC-1
# Test protocol: relative viability (nuclei count vs DMSO), 5 days (fraction); higher = more cells survive
# Cond: first compound 0.3162 µM

Record excerpt, results attached:
compound="CC(C)Oc1cc(Nc2nc(N[C@@H](C)c3ccc(F)cn3)ncc2Cl)n[nH]1 [AZ23] + CC(=O)c1c(C)c2cnc(Nc3ccc(N4CCNCC4)cn3)nc2n(C2CCCC2)c1=O [Palbociclib] (partner 0.5 µM)" readout_type="relative viability" recorded_value=0.694
compound="CC(C)Oc1cc(Nc2nc(N[C@@H](C)c3ccc(F)cn3)ncc2Cl)n[nH]1 [AZ23] + Cc1nc(NC(=O)N2CCC[C@H]2C(N)=O)sc1-c1ccnc(C(C)(C)C(F)(F)F)c1 [Alpelisib] (partner 2 µM)" readout_type="relative viability" recorded_value=1.14

Lab note: each compound below needs its relative viability filled in.
1. CC(C)Oc1cc(Nc2nc(N[C@@H](C)c3ccc(F)cn3)ncc2Cl)n[nH]1 [AZ23] + CCNC(=O)c1noc(-c2cc(C(C)C)c(O)cc2O)c1-c1ccc(CN2CCOCC2)cc1 [Luminespib] (partner 0.01 µM)
2. CC(C)Oc1cc(Nc2nc(N[C@@H](C)c3ccc(F)cn3)ncc2Cl)n[nH]1 [AZ23] + C[C@]1(O)C[C@@H](c2nc(-c3ccc4ccc(-c5ccccc5)nc4c3)c3c(N)nccn32)C1 [Linsitinib] (partner 1 µM)
3. CC(C)Oc1cc(Nc2nc(N[C@@H](C)c3ccc(F)cn3)ncc2Cl)n[nH]1 [AZ23] + CS(=O)(=O)CCNCc1ccc(-c2ccc3ncnc(Nc4ccc(OCc5cccc(F)c5)c(Cl)c4)c3c2)o1 [Lapatinib] (partner 2 µM)

Response:
0.624
0.866
1.17

###

# Tested on: SW 1573
# Test protocol: relative viability (nuclei count vs DMSO), 5 days (fraction); higher = more cells survive
# Cond: first compound 0.8 µM
Readout type: relative viability
Answers are plain numbers.

compound="CCCCCCCCCCCC1=C(O)C(=O)C=C(O)C1=O [Embelin] + Cc1cc(Nc2cc(N3CCN(C)CC3)nc(Sc3ccc(NC(=O)C4CC4)cc3)n2)n[nH]1 [Tozasertib] (partner 0.1 µM)" readout_type="relative viability" recorded_value=0.25
compound="CCCCCCCCCCCC1=C(O)C(=O)C=C(O)C1=O [Embelin] + N=C(N)NC(=N)NCCc1ccccc1 [Phenformin] (partner 250 µM)" readout_type="relative viability" recorded_value=0.366

Lab note: each compound below needs its relative viability filled in.
1. CCCCCCCCCCCC1=C(O)C(=O)C=C(O)C1=O [Embelin] + COc1cc2c(Oc3ccc(NC(=O)C4(C(=O)Nc5ccc(F)cc5)CC4)cc3F)ccnc2cc1OCCCN1CCOCC1 [Foretinib] (partner 0.25 µM)
2. CCCCCCCCCCCC1=C(O)C(=O)C=C(O)C1=O [Embelin] + O=C(c1cc(Cc2n[nH]c(=O)c3ccccc23)ccc1F)N1CCN(C(=O)C2CC2)CC1 [Olaparib] (partner 8 µM)
3. CCCCCCCCCCCC1=C(O)C(=O)C=C(O)C1=O [Embelin] + CS(=O)(=O)N1CCN(Cc2cc3nc(-c4cccc5[nH]ncc45)nc(N4CCOCC4)c3s2)CC1 [Pictilisib] (partner 1 µM)

Response:
0.998
0.561
0.546

###

# System: LCLC-103H
# Test protocol: relative viability (nuclei count vs DMSO), 5 days (fraction); higher = more cells survive
# Cond: first compound 0.4 µM
Task for the reader: assign each of the following compounds its reported relative viability.
One number for each entry.

Record excerpt, results attached:
compound="Clc1ccc(Nc2nnc(Cc3ccncc3)c3ccccc23)cc1 [Vatalanib] + O=C(CCCCCCC(=O)Nc1ccccc1)NO [Vorinostat] (partner 1 µM)" target_system=LCLC-103H recorded_value=0.826
compound="C[C@@H]1CN(CC(=O)Nc2ccc3c(c2)Cc2cccc(-c4cc(=O)cc(N5CCOCC5)o4)c2S3)C[C@H](C)O1 + C[C@@H](Oc1cc(-c2cnn(C3CCNCC3)c2)cnc1N)c1c(Cl)ccc(F)c1Cl [Crizotinib] (partner 1 µM)" target_system=LCLC-103H recorded_value=0.984
compound="COc1cc(N2CCC(C(N)=O)CC2)ccc1Nc1nc(N)c(Cl)c(Nc2ccccc2S(=O)(=O)C(C)C)n1 [HG-5-88-01] + C[C@@H](Oc1cc(-c2cnn(C3CCNCC3)c2)cnc1N)c1c(Cl)ccc(F)c1Cl [Crizotinib] (partner 1 µM)" target_system=LCLC-103H recorded_value=0.95

Kindly consider the entry below.
Request: Which relative viability is listed for COc1cc(N2CCC(C(N)=O)CC2)ccc1Nc1nc(N)c(Cl)c(Nc2ccccc2S(=O)(=O)C(C)C)n1 [HG-5-88-01] + O=C(c1cc(Cc2n[nH]c(=O)c3ccccc23)ccc1F)N1CCN(C(=O)C2CC2)CC1 [Olaparib] (partner 8 µM) ?
Response: 0.697
